- targetSystem: Prostaglandin G/H synthase 1 (Homo sapiens, UniProt P23219)
- Sequence (P23219 whole entry): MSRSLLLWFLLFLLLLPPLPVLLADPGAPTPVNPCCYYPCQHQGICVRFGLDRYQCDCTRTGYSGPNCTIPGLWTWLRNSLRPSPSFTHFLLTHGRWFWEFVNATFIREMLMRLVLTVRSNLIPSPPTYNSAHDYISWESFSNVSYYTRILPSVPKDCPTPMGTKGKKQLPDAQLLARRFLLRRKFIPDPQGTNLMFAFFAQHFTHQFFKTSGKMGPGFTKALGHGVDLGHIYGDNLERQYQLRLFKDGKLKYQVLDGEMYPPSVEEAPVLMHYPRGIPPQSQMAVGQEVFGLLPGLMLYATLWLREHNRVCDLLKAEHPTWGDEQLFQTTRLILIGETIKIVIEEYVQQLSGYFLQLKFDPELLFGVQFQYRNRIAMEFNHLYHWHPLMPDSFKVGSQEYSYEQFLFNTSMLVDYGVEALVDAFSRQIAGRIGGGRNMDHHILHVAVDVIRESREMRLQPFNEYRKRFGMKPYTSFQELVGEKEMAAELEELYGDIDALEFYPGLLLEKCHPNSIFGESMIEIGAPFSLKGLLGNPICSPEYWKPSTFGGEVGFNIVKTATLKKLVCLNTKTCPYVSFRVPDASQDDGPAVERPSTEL
- Assay type: tissue-based, Blood
- Description: Inhibition of COX1 in human whole blood assessed as inhibition of 12-hydroxyheptadecatrienoic acid production by HPLC method
IC50 strictly less than 8 µM = Fulfilled. Otherwise Not fulfilled.

[[record]]
smilesentry = "COC1(c2cc(F)cc(OCCCN3CCc4c(c5ccccc5n4C(=O)c4ccccc4)C3)c2)CCOCC1"
group = "Not fulfilled"

[[record]]
smilesentry = "COc1ccc2c(c1)c1c(n2C(=O)c2ccccc2)CCNC1"
group = "Fulfilled"

[[record]]
smilesentry = "COc1ccc2c(c1)c1c(n2C(=O)c2ccc(Cl)cc2)CCN(CCCOc2cc(F)cc(C3(OC)CCOCC3)c2)C1"
group = "Fulfilled"

[[record]]
smilesentry = "COc1ccc2c(c1)c1c(n2C(=O)c2c(Cl)cc(Cl)cc2Cl)CCN(CCCOc2cc(F)cc(C3(OC)CCOCC3)c2)C1"
group = "Not fulfilled"

